Assay: Stability of leuco dye solution (Table 1)
Assay type: physicochemical
Parameters: key: A: stable; B: slightly unstable
property label: Stability of leuco dye soln.

Example entries begin here.
# compound, Stability of leuco dye soln.
records = [
    ("CCN(CC)c1ccc(N(C(=O)NS(=O)(=O)c2ccc(C)cc2)c2ccc(N(C)C)cc2C)c(C)c1", "A"),
    ("CCCCNC(=O)N(c1ccc(N(C)C)cc1)c1ccc(N(C)C)cc1 [(16), reference compound]", "A"),
    ("Cc1ccc(S(=O)(=O)NC(=O)N(c2ccc(N(C)CO)cc2)c2ccc(N3CCCCC3)cc2)cc1", "A"),
    ("CN(C)c1ccc(N(C(=O)NCC(=O)O)c2ccc(N(C)C)cc2)cc1", "A"),
    ("CNC(=O)N1c2ccc(N(C)C)cc2Sc2cc(N(C)C)ccc21 [(17), reference compound]", "B"),
]

Challenge: Could you share which Stability of leuco dye soln. value was measured for CCCN(CCC)c1ccc2c(c1)Oc1cc(N(CCC)CCC)ccc1N2C(=O)NCC(=O)O ?
Response given: A

Challenge: Could you share which Stability of leuco dye soln. value was measured for CN(C)c1ccc2c(c1)Oc1cc(N(C)C)ccc1N2C(=O)NCC(=O)O ?
Response given: B

Challenge: Could you share which Stability of leuco dye soln. value was measured for CN(C)c1ccc2c(c1)Sc1cc(N(C)CC(=O)O)ccc1N2C(=O)NCC(=O)O ?
Response given: B

====

Experiment: Stability of leuco dye solution (Table 1)
Type: physicochemical
Parameters: key: A: stable; B: slightly unstable
property label: Stability of leuco dye soln.

Example entries begin here.
# molecule, Stability of leuco dye soln.
rows = [
    ("CN(C)c1ccc(N(C(=O)Nc2ccc(S(=O)(=O)O)cc2)c2ccc(N(C)C)cc2)cc1", "A"),
    ("CN(C)c1ccc2c(c1)Sc1cc(N(C)C)ccc1N2C(=O)NCC(=O)O", "B"),
    ("CN(C)c1ccc2c(c1)Oc1cc(N(C)CC(=O)O)ccc1N2C(=O)NCC(=O)O", "B"),
    ("CNC(=O)N(c1ccc(N(C)C)cc1)c1ccc(N(C)C)cc1 [(15), reference compound]", "A"),
    ("CN(C)c1ccc(N(C(=O)NCCC2CCOCC2)c2ccc(N(C)CO)cc2)cc1", "A"),
]

Next molecule, Stability of leuco dye soln. to be filled in.
Challenge: Could you share which Stability of leuco dye soln. value was measured for CCCN(CCC)c1ccc2c(c1)Sc1cc(N(CCC)CCC)ccc1N2C(=O)NCC(=O)O ?
Response given: A

====

Test: Maximum absorption wavelength (λmax) and sensitivity (ε) (Table 1)
Assay type: physicochemical
Conditions: at color development
property label: λmax (nm)
The reply should be a number in nm, with the unit left off.

Challenge: Could you share which λmax value was measured for CN(C)c1ccc(N(C(=O)NCC(=O)O)c2ccc(N(C)C)cc2)cc1 ?
Response given: 730

Challenge: Could you share which λmax value was measured for CN(C)c1ccc2c(c1)Sc1cc(N(C)C)ccc1N2C(=O)NCC(=O)O ?
Response given: 666

Challenge: Could you share which λmax value was measured for CCCN(CCC)c1ccc2c(c1)Oc1cc(N(CCC)CCC)ccc1N2C(=O)NCC(=O)O ?
Response given: 666

Challenge: Could you share which λmax value was measured for CCCCNC(=O)N(c1ccc(N(C)C)cc1)c1ccc(N(C)C)cc1 [(16), reference compound] ?
Response given: 730

Challenge: Could you share which λmax value was measured for CN(C)c1ccc(N(C(=O)Nc2ccc(S(=O)(=O)O)cc2)c2ccc(N(C)C)cc2)cc1 ?
Response given: 730

Challenge: Could you share which λmax value was measured for CCN(CC)c1ccc(N(C(=O)NS(=O)(=O)c2ccc(C)cc2)c2ccc(N(C)C)cc2C)c(C)c1 ?
Response given: 740

Challenge: Could you share which λmax value was measured for CN(C)c1ccc2c(c1)Oc1cc(N(C)CC(=O)O)ccc1N2C(=O)NCC(=O)O ?
Response given: 666

Challenge: Could you share which λmax value was measured for CNC(=O)N(c1ccc(N(C)C)cc1)c1ccc(N(C)C)cc1 [(15), reference compound] ?
Response given: 730

Challenge: Could you share which λmax value was measured for CNC(=O)N1c2ccc(N(C)C)cc2Sc2cc(N(C)C)ccc21 [(17), reference compound] ?
Response given: 666

Challenge: Could you share which λmax value was measured for CCCN(CCC)c1ccc2c(c1)Sc1cc(N(CCC)CCC)ccc1N2C(=O)NCC(=O)O ?
Response given: 666

Challenge: Could you share which λmax value was measured for Cc1ccc(S(=O)(=O)NC(=O)N(c2ccc(N(C)CO)cc2)c2ccc(N3CCCCC3)cc2)cc1 ?
Response given: 730

Challenge: Could you share which λmax value was measured for CN(C)c1ccc(N(C(=O)NCCC2CCOCC2)c2ccc(N(C)CO)cc2)cc1 ?
Response given: 730

Challenge: Could you share which λmax value was measured for CN(C)c1ccc2c(c1)Sc1cc(N(C)CC(=O)O)ccc1N2C(=O)NCC(=O)O ?
Response given: 666

Challenge: Could you share which λmax value was measured for CN(C)c1ccc2c(c1)Oc1cc(N(C)C)ccc1N2C(=O)NCC(=O)O ?
Response given: 666
